System: H1299
Assay: Proliferation assay (MTS), lung cancer cell line
Format: cell-based
Details: Homo sapiens, NCI-H1299, 72 h, determined at day 3
pIC50: −log10 of the molar value.

Compound | pIC50
[Br-].c1ccc(Cn2cc[n+](Cc3ccccc3)c2)cc1 [DBZIM, 1,3-bisbenzylimidazolium bromide] | 4.30

----------
System: HSC T6 cells
Test: MTS based proliferation assay (cytotoxicity) on cultured HSC-T6 cells
Format: cell-based, rat
Conditions: HSC T6 cells; read-out: IC50 (toxicity on T6 cells)
Recorded Endpoint: IC50

Substance | Tested Target | Measured Result
1,3-bis(2,4,6-trimethylphenyl)-imidazolinium chloride [TMPHIM] | HSC T6 cells | 110 µM
1,3-bis(2,6-diisopropyl-phenyl)-imidazolinium chloride [DPPHIM] | HSC T6 cells | 34 µM
1,3,5-tris(4-methyl-imidazolium)-linked cyclophane.3Br [TDBZIM] | HSC T6 cells | ~500 µM
